Reference source for all entries: paper PMC11162469

For each of the binders below, state its IC50, INSL3 (EC80)-stimulated cAMP in HEK293 stably expressing human RXFP2.
Measured target: human relaxin family peptide receptor 2 (RXFP2) (human) (UniProt Q8WXD0)
Sequence (Q8WXD0 whole entry): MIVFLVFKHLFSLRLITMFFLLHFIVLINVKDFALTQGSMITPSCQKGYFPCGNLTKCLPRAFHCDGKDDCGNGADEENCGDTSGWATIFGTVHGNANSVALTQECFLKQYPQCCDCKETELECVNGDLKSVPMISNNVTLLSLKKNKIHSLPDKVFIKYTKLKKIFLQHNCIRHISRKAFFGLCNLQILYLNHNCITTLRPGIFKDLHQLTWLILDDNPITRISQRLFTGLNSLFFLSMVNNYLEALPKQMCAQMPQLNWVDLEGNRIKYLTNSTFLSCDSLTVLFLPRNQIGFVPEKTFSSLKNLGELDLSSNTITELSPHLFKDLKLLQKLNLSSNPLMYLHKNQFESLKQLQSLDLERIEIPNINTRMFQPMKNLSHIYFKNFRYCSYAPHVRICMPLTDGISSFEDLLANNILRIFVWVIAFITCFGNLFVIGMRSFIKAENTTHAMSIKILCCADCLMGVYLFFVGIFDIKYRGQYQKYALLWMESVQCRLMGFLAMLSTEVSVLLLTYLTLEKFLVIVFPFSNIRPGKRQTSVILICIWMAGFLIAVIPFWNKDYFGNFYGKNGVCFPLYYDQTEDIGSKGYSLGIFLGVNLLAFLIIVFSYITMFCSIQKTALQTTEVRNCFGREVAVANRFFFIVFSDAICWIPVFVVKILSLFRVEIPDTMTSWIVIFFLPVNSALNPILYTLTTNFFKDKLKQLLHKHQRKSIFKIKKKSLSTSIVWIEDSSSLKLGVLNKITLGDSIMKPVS

Q: Fill in the blank: the reported IC50, INSL3 (EC80)-stimulated cAMP in HEK293 stably expressing human RXFP2 of RXFP2 mAb 2D4 (antibody, V domains shown) VH: QVQLKESGPGLVAPSQSLSITCTVSGFSLTTYGISWVRQPPGKGLEWLGVIWTGGGTNYNSALKSRLSISKDNSKSQVFLKMNSLQTDDTARYYCARTEGYYVMDYWGQGTSVTVSS VL: DIQMTQSPASLSVSVGETVTITCRASENIYSNLVWYQQKQGKSPQLLVYAATNLADGVPSRFSGSGSGTQYSLKINNLQSEDFGTYYCQHFWGPPWTFGGGTKLEIK is ____.
Ans: > 1000 nM

Q: Record: RXFP2 mAb 3F1 (antibody, V domains shown) VH: QVQLKESGPGLVAPSQSLSITCTVSGFSLTDYGVSWIRQPPGKGLEWLGVIWGGGSTDYNPALKSRLSISKDNSKSQVFLKMNSLQADDTAMYYCVKHEGYYAMDYWGQGTSVTVSS VL: DIQMTQSPASLSVSVGETVTITCRASENIYSNLAWYQQKQGKSPHLLVYAVTNLADGVPSRFSGSGSGTQYSLKINSLQSEDFGSYYCQHFWGTPYTFGGGTKLEIK
Ans: 589 nM
